These entries and their values trace back to PubChem BioAssay.

Quick reference: composite z-score of the listed items.
assay: compound binding in COS7 lysate, probe aLAP1, primary screen, cell lysate, small-molecule microarray (AID 1124); details: probe aLAP1, fluorescence, higher = more signal;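 also: lysate comes from COS7 cells expressing LAP1 and is applied at 0.3 µg/mL; score merges spot fluorescence near 667 nm with signal-to-noise over triplicate slides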
Answer with a number only.

Reference set (5 entries):
{"columns": ["compound", "observedValue"],
 "data": [
  ["COc1cc2c(cc1OC)CN(C(=O)[C@@H]1[C@H]3C(=O)O[C@H](c4ccccc4)[C@H](c4ccccc4)N3[C@H](c3ccc(O)cc3)[C@@]13C(=O)Nc1ccc(C#CCCO)cc13)CC2", 0.78],
  ["CC=CC(O)C1C=CC2C(=O)NC(=O)C2N1Nc1ccccn1 (configuration not stated)", 0.654],
  ["CO[C@H]1O[C@H](CO)[C@@H](OC(=O)CCc2ccccc2)[C@H](OC(=O)c2cc3ccccc3[nH]2)[C@H]1OC(=O)c1cc2ccccc2[nH]1", -0.206],
  ["CCOC(=O)C=Cc1ccccc1O", 0.163],
  ["COC(=O)[C@@]1(Cc2ccc(OC)cc2)[C@H]2c3cc(C(=O)N4CCCC4)n(Cc4ccc(S(C)(=O)=O)cc4)c3C[C@H]2CN1C(=O)c1ccccc1", -0.272]
]}

Measured composite z-score of `C[C@@]12COC[C@]13C=C(Br)[C@H](C2)[C@@]1(CO1)C3=O` : 0

Measured composite z-score of `CCCCC(=C=CC[C@H](O)c1ccc(OCCO)cc1)C[C@H](O)COCc1ccccc1` : 0.271

Measured composite z-score of `CCOC(=O)C[C@H]1[C@H](OC(=O)c2ccc(-c3ccccc3)cc2)[C@@H](NC(=O)CC(C)C)c2cc(OCCCO)ccc2N1C(=O)c1ccccc1` : -0.2

Measured composite z-score of C=C(C)C1CCC(C(O)C2C=CC3C(=O)N(C)C(=O)C3N2Nc2cc(OC)c(OC)c(OC)c2)CC1 (configuration not stated) : 0.0507

Measured composite z-score of `CC(C)C[C@@H]1NC(=O)[C@H]2C[C@@H](C(=O)NCCCCCN)[C@@H](c3cccc(OCCO)c3)N2C1=O` : 1.16

Measured composite z-score of `Nc1cc(Br)ccc1C(=O)O` : -0.0137

Measured composite z-score of `COCCOC(=O)N1C(=O)[C@@]2(c3ccccc31)[C@H](c1ccccc1OCCO)N1[C@H](c3ccccc3)[C@H](c3ccccc3)OC(=O)[C@H]1[C@@H]2C(=O)N1CCCCCCC1` : 1.96

Measured composite z-score of `C=C(CCCC)/C(=C/C[C@H](OC(C)=O)c1ccc(OCCO)cc1)c1cc(C(=O)OC)ccc1OC` : 0.561

Measured composite z-score of `CN(C)CCCC[C@@H]1NC(=O)[C@@H]2C[C@H](C(=O)O)[C@H](c3cccc(OCCO)c3)N2C1=O` : -0.0644

Measured composite z-score of `Cc1ccc(S[C@]2(C(=O)NC(C)C)CC(=O)N(Cc3ccccc3Cl)[C@@H]2c2ccc(CO)cc2)cc1` : 0.542

Measured composite z-score of CCOC(=O)C1=CCC(c2ccco2)N(S(=O)(=O)c2ccc(C)cc2)C1 (configuration not stated) : 0.509

Measured composite z-score of COC(=O)C1=CC(CCCO)=CC(c2ccc(CN3CCCC3)cc2)N(Cc2cc3c(cc2Br)OCO3)C=C1C(=O)OC (configuration not stated) : 0.672

###

target: Carbonic anhydrase 2 (Homo sapiens) (UniProt P00918); assay: CAII small-molecule binders, profiling panel, biochemical, small-molecule microarray, Alexa647-labelled CAII (AID 1122); settings: CAII-A647 binding fluorescence, higher = more signal
endpoint: composite z-score
Answer with a number only.

Reference set (5 entries):
{"columns": ["molecule", "composite z-score"],
 "data": [
  ["C=C(COC)C(=O)CC[C@@H](OC(=O)c1cccnc1)c1ccccc1OCCO", 0.758],
  ["[N-]=[N+]=Nc1ccccc1[C@@H]1OC(c2ccc(OCCCO)cc2)=N[C@]1(Cc1ccccc1)C(=O)NCc1ccccc1", 0.379],
  ["CC(=O)n1cc(C(O)C2C=CC3C(=O)N(c4ccccc4)C(=O)C3N2Nc2ccc(C(C)C)cc2)c2ccccc21 (stereo not drawn)", 0.433],
  ["CCOC(=O)C=Cc1cc(F)ccc1O", 0.384],
  ["COc1ccc([Si](C)(C)[C@H]2[C@H](CC(=O)N3Cc4ccccc4C[C@H]3CO)O[C@@]3(C(=O)N(Cc4ccc(N5C(=O)c6cccc7cccc5c67)cc4)c4ccccc43)[C@@H]2C)cc1", 0.376]
]}

Measured composite z-score of COc1cc2c(cc1O)C(c1ccc(CN3CCCC3)cc1)N(C)CC2 (stereo not drawn) : 0.359

Measured composite z-score of `C=C[C@H](C)[C@H](OC(=O)Nc1ccc(OC)cc1)c1ccc(OCCO)cc1` : 0.464

Measured composite z-score of `C[C@]1(C(=O)O)c2ccccc2C(=O)N(Cc2ccc(OC(F)(F)F)cc2)[C@H]1c1ccc(CO)cc1` : 0.73

###

Quick reference: composite z-score of the listed items.
test system: XIP peptide (Xip251-270); assay: small-molecule binders of XIP peptide, primary screen, biochemical, small-molecule microarray, fluorescence 635/667 nm, 0.5 µg/mL protein (AID 1183); details: small-molecule microarray binding, fluorescence 635 nm; higher = more signal
Answer with a number only.

{"columns": ["molecule", "observedValue"],
 "data": [
  ["CCCCC(=O)N(CCN1CCOCC1)[C@@H]1CC(C(=O)NCCO)=C[C@H](Oc2c(I)cc(CO)cc2OC)[C@H]1O", 0.918],
  ["COCC(=C=CC[C@H](O)c1cccc(OCCO)c1)C[C@H](O)COCc1ccccc1", -0.524],
  ["COC(=O)C1=CC(CCCO)=CC(c2ccc(CN3CCCC3)cc2)N(Cc2cc3c(cc2Br)OCO3)C=C1C(=O)OC (stereo not drawn)", 0.727]
]}

Query molecule follows.
Measured composite z-score of CN1C(=O)C2C(C1=O)C1C=C(CCCO)C2C(c2cccs2)N1Cc1cc2c(cc1Br)OCO2 (stereo not drawn) : 0.757

###

test: adipocyte viability effects, profiling panel, cell-based, 3T3-L1 adipocytes, calcein-AM fluorescence, 48 h, basal (AID 1163); details: 3T3-L1 adipocytes viability, higher = more signal
Field: label. Allowed values: T (z-score < -0.1) or F (z-score >= -0.1).

{"columns": ["compound", "assignedClass"],
 "data": [
  ["Cc1ccc(S[C@]2(C(=O)NCC(C)C)CC(=O)N(C3Cc4ccccc4C3)[C@@H]2c2ccc(CO)cc2I)cc1", "T"]
]}

Hi there! Is z-score for `[N-]=[N+]=Nc1ccccc1C[C@@]1(C(=O)O)N=C(c2ccc(OCCCO)cc2)O[C@@H]1c1ccccc1N=[N+]=[N-]` below -0.1, do you know?
T

Hi there! Is z-score for `COC(=O)[C@@]1(Cc2ccc(F)cc2)[C@H]2c3cc(C(=O)N4CCCC4)n(CC4CC4)c3C[C@H]2CN1C(=O)c1ccccc1` below -0.1, do you know?
F

Hi there! Is z-score for CS(=O)(=O)CCOC(=O)C1=CC(CCCO)=CC(C2CC2)N(Cc2cccc(OC(F)(F)F)c2)C=C1C(=O)OCCS(C)(=O)=O (configuration not stated) below -0.1, do you know?
F

Hi there! Is z-score for `C[C@@H]1ON(c2ccc(I)cc2)[C@H](c2ccc(OC(=O)OC(C)(C)C)cc2)[C@H]1C(=O)N1C(=O)OC[C@H]1Cc1ccccc1` below -0.1, do you know?
F

Hi there! Is z-score for COCC1C2CC[C@H]3C(OCc4ccc(OC)cc4)OC[C@]4(C)[C@H]3C2=C(CN4C(=O)OC(C)(C)C)[C@H](C)C1COC (some centres not stated) below -0.1, do you know?
F

Hi there! Is z-score for `Cc1nc2cc(Br)ccc2c(=O)n1Cc1cccc(O)c1` below -0.1, do you know?
T

###

test: basal RPMI8226 mitochondrial membrane potential changes, profiling panel, cell-based, JC-1 fluorescence, 24 h, 100 nL compound (AID 1169); settings: RPMI8226 myeloma, JC-1 mitochondrial potential fluorescence, higher = more signal
endpoint: z-score

Reference set (4 entries):
{"columns": ["compound", "z-score"],
 "data": [
  ["C=C(COC)/C(=C/C[C@@H](OC(=O)c1ccncc1)c1ccccc1OCCO)c1cc(C(=O)OC)ccc1OC", -0.735],
  ["CCCNC(=O)[C@@]1(C)c2ccccc2C(=O)N(Cc2ccccc2)[C@H]1c1ccc(CO)cc1", -0.415],
  ["[N-]=[N+]=Nc1ccccc1C[C@]1(C(=O)NCc2ccccc2)COC(c2ccc(OCCCO)cc2)=N1", -1.17],
  ["C=C[C@@H](OC)[C@H](OC(=O)Nc1ccc(SC)cc1)c1ccc(OCCO)cc1", -0.151]
]}

Query compound follows.
Measured z-score of `C=C(CCCC)C(=O)CC[C@H](OC(C)=O)c1ccc(OCCO)cc1` : -0.248
